# Tested on: NCI-H522
# assay-text: NCI tumour cell line growth inhibition, 48 h
Active and inactive are the calls of the source. Cut-off read from the data, not from the text of the source: active = GI50 up to about 1.1 µM and inactive = higher.

# compound, GI50
rows = [
    ("COc1ccccc1NC(=S)Nc1cccc(C)n1", "2.84 µM (inactive)"),
    ("Cc1ccc2c(c1C)CC1(Cc3c(ccc4c3CCC4)C1=O)C2=O (stereo not drawn)", "> 100 µM (inactive)"),
    ("CCOC(=O)NNC(=O)NCCCCNC(=O)NNC(=O)OCC", "> 100 µM (inactive)"),
    ("COc1ccc2c3ccc4c(c3n(C)c2c1)C(=O)C=CC4=O", "10.4 µM (inactive)"),
    ("CCCCCCCCCCCC(=O)OC[C@H](C[As](=O)(O)O)OC(=O)CCCCCCCCCCC", "2.25 µM (inactive)"),
    ("Cc1nc2ccc(NCCN(C)C)c3c(=O)c4ccccc4n1c23", "1.52 µM (inactive)"),
    ("Nc1ccc2c(c1)S(=O)(=O)c1cc(O)ccc1O2", "> 100 µM (inactive)"),
    ("C/C=C1\\CC2C(=O)CCC2C2c3ccccc3OC12 (stereo not drawn)", "> 100 µM (inactive)"),
    ("COC1=C(OC)C(O)(c2ccccc2)C1=O (stereo not drawn)", "> 100 µM (inactive)"),
    ("C/C=C/CC(C(=O)OCC)(N(C)C(=O)OC(C)(C)C)S(=O)(=O)c1ccc(C)cc1 (stereo not drawn)", "57.7 µM (inactive)"),
    ("CCOC(=O)C(/C(=N\\NC(=O)OC)C(=O)Nc1cc(OC)ccc1OC)c1cnc2ccccc2n1 (stereo not drawn)", "> 100 µM (inactive)"),
    ("O=C1c2c(ccc3c2CCCC3)CC12Cc1ccccc1C2", "12.8 µM (inactive)"),
    ("O=C(c1ccccc1)[C@H]1Nc2cnccc2C2c3ccccc3CC21 (stereo partly drawn)", "2.78 µM (inactive)"),
    ("CCCCOC(=O)C(=O)C(CC(CC)C(=O)c1ccccc1)C(=O)C=C(C)C (stereo not drawn)", "> 100 µM (inactive)"),
    ("Cc1cccc(C2NC(=O)c3ccccc3N2)c1 (stereo not drawn)", "3.69 µM (inactive)"),
    ("COc1ccc(C2=Nn3c(nc4sc(C)c(C)c4c3=O)SC2)cc1", "> 100 µM (inactive)"),
    ("Clc1cc(-c2ccccc2)nc(Nc2nc3ccccc3[nH]2)n1", "11.4 µM (inactive)"),
    ("CC(C)(C)n1c(=O)n(C(=O)C(Cl)(Cl)Cl)n(C(=O)C(Cl)(Cl)Cl)c1=O", "> 100 µM (inactive)"),
    ("CN1CCN(c2ccc3[nH]c(-c4ccc5[nH]c(-c6ccc(O)cc6)nc5c4)nc3c2)CC1", "9.82 µM (inactive)"),
    ("CCNc1nc2ccccc2nc1NCC", "> 100 µM (inactive)"),
    ("CC(C)(C)CNCCO", "> 100 µM (inactive)"),
    ("Cc1cccc(NC(=O)/C=C/c2ccccc2)c1C", "> 100 µM (inactive)"),
    ("CN1Cc2cc(O)c(O)cc2C(O)C1 (stereo not drawn)", "49.3 µM (inactive)"),
    ("N#Cc1c(C#N)c(SSc2c(C#N)c(C#N)c(N)n2-c2ccc(F)cc2)n(-c2ccc(F)cc2)c1N", "1.7 µM (inactive)"),
    ("CCCOP(=O)(OCCC)OC(C(F)(F)F)C(F)(F)F", "> 100 µM (inactive)"),
    ("O=C1CCC2(c3ccc(Cl)cc3)Nc3ccncc3N12 (stereo not drawn)", "> 10 µM (inactive)"),
    ("c1ccc2c(c1)C1=NCCN1c1ccccc1-2", "1.45 µM (inactive)"),
    ("Cc1c(-c2ccccc2)[nH]c2cn[nH]c(=O)c12", "86.1 µM (inactive)"),
    ("CCN(CC)c1ccc(C2SCC(=O)N2c2ccc(NC(=O)c3ccc(N4C(=O)CSC4c4ccc(N(CC)CC)cc4)cc3)cc2)cc1 (stereo not drawn)", "> 100 µM (inactive)"),
    ("CCCCn1c(-c2ccc([N+](=O)[O-])cc2)cs/c1=N/N=C1\\C(=O)Nc2ccc(Br)cc21", "14.2 µM (inactive)"),
    ("NC(Cc1cccnn1)C(=O)O (stereo not drawn)", "> 100 µM (inactive)"),
    ("CC(C)=CCCC1(C)C=Cc2c(c(C)cc3c2[nH]c2cc(O)ccc23)O1 (stereo not drawn)", "6.82 µM (inactive)"),
    ("C=C1C(=O)O[C@@H]2C[C@]3(C)[C@@H](C[C@H]12)[C@](C)(O)CC[C@@H]3O", "34.8 µM (inactive)"),
    ("Cc1ccc(C)n1-c1ccccc1C1SCCCS1", "> 100 µM (inactive)"),
    ("CN(CC(=O)O)c1ncc2c(n1)-c1ccccc1SC2", "> 100 µM (inactive)"),
    ("COc1ccc(-c2cc(-c3cc(F)c(Cl)cc3Cl)on2)cc1OC", "15.6 µM (inactive)"),
    ("N=C(N)NCCCC(Nc1c2ccccc2[n+]([O-])c2ccccc12)C(=O)O (stereo not drawn)", "29 µM (inactive)"),
    ("CCCCCC1=C2C(c3ccc(OC)cc3)=C(N)C(c3ccc(OC)cc3)=C3NC(=O)C(C=C1)C32 (stereo not drawn)", "22.4 µM (inactive)"),
]
